EC50 by entry:
- assayed_target: Heat shock factor protein 1 (Mus musculus)
- Sequence (P38532 whole entry): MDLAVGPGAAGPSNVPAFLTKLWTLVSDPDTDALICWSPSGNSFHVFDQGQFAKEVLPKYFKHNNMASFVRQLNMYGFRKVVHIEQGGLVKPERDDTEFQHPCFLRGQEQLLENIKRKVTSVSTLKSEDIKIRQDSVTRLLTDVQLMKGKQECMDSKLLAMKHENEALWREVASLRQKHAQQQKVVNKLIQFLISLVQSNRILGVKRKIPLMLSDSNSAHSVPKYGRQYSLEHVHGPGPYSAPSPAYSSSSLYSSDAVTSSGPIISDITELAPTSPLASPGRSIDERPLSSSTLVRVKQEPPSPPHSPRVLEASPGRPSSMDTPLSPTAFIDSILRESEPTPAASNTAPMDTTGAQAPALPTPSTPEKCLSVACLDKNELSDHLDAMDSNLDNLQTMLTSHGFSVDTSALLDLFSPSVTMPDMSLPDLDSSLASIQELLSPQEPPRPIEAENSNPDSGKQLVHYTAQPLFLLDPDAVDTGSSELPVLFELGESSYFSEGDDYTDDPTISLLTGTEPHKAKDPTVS
- experimental_protocol: decrease of HSF1-responsive luciferase luminescence – cell-based, NIH3T3, dose retest, confirmation (AID 2382);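 also: NIH3T3 fibroblasts with HSF1-driven luciferase reporter stressed by proteasome inhibitor MG132; luminescence from HSF1-driven luciferase expression after 8 hours of MG132 stress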
- Type: functional
The source made the active and inactive calls. Rule as the data show it: actives have a measured EC50 and inactives only a lower limit.

Study these solved cases before continuing.
>>> print(df.to_string())
                                   compound                            assayed_target  reported_metric                 result
0  COC(=O)c1cc(COc2ccc3oc(C)c(C(=O)OC(C)C)c3c2)c(C)o1  Heat shock factor protein 1 (Mus musculus)             EC50  > 195 µM (not active)
1  CC(=O)OC1(c2ccccc2)CCN(C)C2CCCCC21 (stereo unspecified)  Heat shock factor protein 1 (Mus musculus)             EC50  > 195 µM (not active)
2            Cc1nc2ccc(NC(=O)N3CCSCC3)cc2s1  Heat shock factor protein 1 (Mus musculus)             EC50  > 195 µM (not active)
3      Cc1cc(-n2c(C)c3c(C)nnc(C)c3c2C)ccc1N  Heat shock factor protein 1 (Mus musculus)             EC50  > 195 µM (not active)
4              O=C(CCl)Nc1ccc(-c2ccccc2)cc1  Heat shock factor protein 1 (Mus musculus)             EC50       9.64 µM (active)
5  CCOc1ccc(CNC(=O)CCS(=O)(=O)c2ccc3c(c2)oc(=O)n3C)cc1  Heat shock factor protein 1 (Mus musculus)             EC50  > 195 µM (not active)

# input Give the reported value of EC50 for this record: Cc1cc2cc(CCNC(=O)C(=O)c3c[nH]c4ccccc34)c(O)nc2cc1C
# output 21.1 µM (active)

# input Give the reported value of EC50 for this record: CCc1ccc2[nH]c(O)c(N=Nc3nc(-c4ccccc4)cs3)c2c1
# output > 195 µM (not active)

# input Give the reported value of EC50 for this record: Cc1cccc(N(C(=O)c2ccco2)C(C(=O)NC2CCCC2)c2cccnc2)c1C (stereo unspecified)
# output > 195 µM (not active)

# input Give the reported value of EC50 for this record: C/C(=N\OCC(=O)Nn1c(=O)[nH]c2ccccc2c1=O)c1cccs1
# output > 195 µM (not active)

# input Give the reported value of EC50 for this record: O=S(=O)(N1CCCCC1)n1nnc2ccccc21
# output > 195 µM (not active)
